system-name: T1, full-length untagged human GPNMB expressed on cells (human, UniProt Q14956 23-572)
T1 sequence: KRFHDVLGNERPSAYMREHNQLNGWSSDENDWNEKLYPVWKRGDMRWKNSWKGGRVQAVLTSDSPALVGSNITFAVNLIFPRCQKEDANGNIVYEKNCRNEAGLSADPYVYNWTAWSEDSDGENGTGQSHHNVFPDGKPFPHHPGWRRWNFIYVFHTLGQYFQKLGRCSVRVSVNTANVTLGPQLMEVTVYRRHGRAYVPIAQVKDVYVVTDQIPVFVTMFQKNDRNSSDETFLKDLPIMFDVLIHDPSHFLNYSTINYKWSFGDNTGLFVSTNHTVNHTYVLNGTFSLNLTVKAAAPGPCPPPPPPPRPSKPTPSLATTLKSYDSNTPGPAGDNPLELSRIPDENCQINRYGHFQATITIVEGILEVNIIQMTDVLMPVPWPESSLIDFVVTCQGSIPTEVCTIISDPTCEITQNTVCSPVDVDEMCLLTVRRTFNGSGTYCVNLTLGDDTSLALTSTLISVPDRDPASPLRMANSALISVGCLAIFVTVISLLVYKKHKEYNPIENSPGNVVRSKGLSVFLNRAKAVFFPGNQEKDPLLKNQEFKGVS
experimental-details: cell-based or functional assay
endpoint-label: GCase (FoB)
Response body: numeric value in FoB, unit text excluded.

For orientation, consider the following solved cases.
binder="anti-GPNMB antibody GPN-11 (antibody, human IgG1, V domains shown, chimeric) VH: QVQLQQPGAELVKPGASVKLSCKASGYTFTSYWMHWVKQRPGQGLEWIGEINSSNGRTNYNEKFKTKATLTVDRSSSTAYMQLSSLTSEDSAVYYCARLGYYSGSPYPYYAMDCWGQGTSVTVSS VL: DIQMTQSPASLSVSVGETVTITCRASENIYSNLAWYQQKQGKSPQLLVYAATNLADGVPSRFSGSGSGTQYSLKINSLQSEDFGSYYCQHFWNTPPTFGGGTKLEIK" recorded_number=1.24
binder="anti-GPNMB antibody GPN-06 (antibody, human IgG1, V domains shown, chimeric) VH: QVQLQQSGAELVKPGASVKLSCKASGYTFTNYYMYWVKQRPGQGLEWIGEINTRNGGTNFNEKFKSKATLTVDKSSSTAYMQLSSLTSEDSAVYYCTTGFAYWGQGTLVTVSA VL: DIQMTQSPASLSASVGETVTITCRASENIYSYLVWYQQNQGKSPQLLVYNAKTLAEGVPSRFSGSGSGTQFSLKINSLQPEDFGTYYCQHHYGTPFTFGSGTKLEIK" recorded_number=1.58
binder="anti-GPNMB antibody GPN-25 (antibody, human IgG1, V domains shown, chimeric) VH: EVQLQQSGPELVKPGASVKISCKASGYSFTGYYMNWVKQSPEKSLEWIGEINPGSGITTYNQKFKAKATLTVDKSSSTAYLQLKSLTSEDSAVYYCARPASWFAYWGQGTLVTVSA VL: DIQMTQSPSSLSASLGERVSFICRASQEISGHLSWLQQKPDGTIKRLIYAASTLDSGVPKRFSGSRSGSDYSLTISSLESEDFADYYCLQYASYPYTFGGGTKLEIK" recorded_number=1.24
binder="anti-GPNMB antibody GPN-34 (antibody, human IgG1, V domains shown, chimeric) VH: EVKLVESGGGLVQPGRSLKLSCAASGFNFYDYWMGWVRQAPGKGLEWIGEINKDSRTINYTPFLKDRFTISRDNAQNTLYLQMSKLGSEDTAIYYCAREGRVPFDYWGQGVMVTVSS VL: DIQMTQSPSSMSVSLGDTVTIPCRASQDVGSYVNWFQQKPGKSPRHMIYRATNLADGVPSRFSGSRSGADYSLTISSLESEDVADYHCQQYAEYPLTFGSGTKLEIK" recorded_number=1.76
binder="anti-GPNMB antibody GPN-31 (antibody, human IgG1, V domains shown, chimeric) VH: EVQLQQSGPELVKPGASVKISCKASGYSFTGYYMNWVKQSPEKNLEWIGEINPNTGGTTYNQKFKAKATLTVDKSSTTAYMQLKSLTSEDSAVYYCTRPASWFDYWGQGTLVTVSA VL: DIQMTQSPSSLSASLGERVSLTCRASQEISGHLSWLQQKPDGTIKRLIYAASTLDSGVPKRFSGRRSGSDYSLTISSLESEDFADYYCLQYASYPYTFGGGTKLAIK" recorded_number=1.22

In the following, a different binder is considered.
I have this binder here, anti-GPNMB antibody GPN-22 (antibody, human IgG1, V domains shown, chimeric) VH: QVQLQQPGAERVKPGASVKMSCKASGYTFTSYWITWVKQRPGQGLEWIGDIFPGSGSTNYHEKFKSKATLTVDTSSSTAYMQLSSLTSEDSAVYYCSRGYFGSSFSDYWGQGTSVTVSS VL: DIQMTQSPSSLSASLGERVSLTCRTSQEISGYLSWLQQKPDGTIKRLIYSTSTLDSGVPKRFSGSRSGSDYSLTISSLESEDFADYYCLQYASSPPTFGSGTKLEIK , and I need its recorded GCase (FoB).
1.21
